- Subject of test: Wee1-like protein kinase (Homo sapiens) (UniProt P30291)
- Protocol text: Wee1 degradation inhibitors, primary screen, cell-based, HeLa, Wee1K328M-luciferase, luminescence (AID 1321);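 further: cells exposed to compound for 20 h before luminescence read; 0% = DMSO alone and 100% = MG132 at 30 µM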
- Assay context: HeLa Luc-Wee1K328M stability, at 5 µM, hits give high values, 100% = proteasome inhibitor MG132 effect
Hit rate of the full screen: of about 220,000 compounds, about 2,600 (1.2%) were called active. Only a selection was taken, and actives are over-represented in it overall.
Measure name: reporter increase (%)
I only need the number, in %, no unit after it.

Please give the measured reporter increase for this compound: O=C(CSc1nnc(-c2cccs2)n1-c1ccccc1)N1CCN(C(=O)c2ccco2)CC1
-2.17

// same read-out, input: Cc1cc(C)cc(NS(=O)(=O)c2ccc(F)cc2)c1
-2.79

// same read-out, input: O=C(NCc1csc(-c2cccs2)n1)C1CC1
-1.28

// same read-out, input: NC1=NC(=O)C(Cc2cccc(Cl)c2)S1 (stereo unspecified)
-3.99

// same read-out, input: O=C(CCS(=O)(=O)c1ccccc1Cl)Nc1ccc(S(=O)(=O)Nc2ncccn2)cc1
-2.3

// same read-out, input: Cn1c(=O)n(C)c2cc(NS(=O)(=O)c3ccc(F)cc3)ccc21
12.5

---

- Subject of test: Wee1-like protein kinase (Homo sapiens) (UniProt P30291)
- Protocol text: Wee1 degradation inhibitors, primary screen, cell-based, HeLa, Wee1K328M-luciferase, luminescence (AID 1321)
- Assay context: HeLa Luc-Wee1K328M stability, at 5 µM, hits give high values, 100% = proteasome inhibitor MG132 effect
Hit rate of the full screen: of about 220,000 compounds, about 2,600 (1.2%) were called active. Only a selection was taken, and actives are over-represented in it overall.
Measure name: reporter increase (%)
I only need the number, in %, no unit after it.

Please give the measured reporter increase for this compound: Oc1ccccc1/C=N/n1c(-c2cccs2)n[nH]c1=S
-3.64

// same read-out, input: CCN(CC(=O)NC(=O)NCc1ccccc1)Cc1nc2ccccc2c(=O)[nH]1
10.5

// same read-out, input: CC(C)(C)c1ccc(/C=C/C(=O)NC2CCS(=O)(=O)C2)cc1 (stereo not drawn)
2.93

// same read-out, input: COc1cc2nc(Cl)nc(NCCO)c2cc1OC
-0.52

// same read-out, input: Cc1ccc(C(=O)NNc2ncnc3ccccc23)cc1
-1.2

// same read-out, input: COCC1CCCN(Cc2nc(-c3ccc4c(c3)OCO4)no2)C1 (stereo not drawn)
9.73

// same read-out, input: COC(=O)Cn1c(O)c(N=NC(=O)OC)c2ccccc21
-1.42

// same read-out, input: Cc1ccc(C(=O)NCC(=O)OCC(=O)Nc2cccc(S(=O)(=O)N3CCCC3)c2)cc1C
0.09

// same read-out, input: O=C(CSc1nnc(SCc2ccc(F)cc2)s1)Nc1ccc(C(=O)O)cc1
-1.55

// same read-out, input: Fc1ccc(Nc2nnns2)cc1
-1.03

// same read-out, input: COc1ccc(-c2ccc(OC(=O)NC3CCS(=O)(=O)C3)cc2)cc1 (stereo not drawn)
9.29

// same read-out, input: CCCC(=O)N(CCc1ccccc1)Cc1nc2ccccc2c(=O)[nH]1
-2.77

// same read-out, input: CCN(CC(=O)Nc1ccc(Cl)c(S(=O)(=O)N(C)C)c1)Cc1nc2ccccc2c(=O)[nH]1
9.09

// same read-out, input: O=C1CC2(CC(c3ccc(Cl)cc3)=NO2)C(=O)N1c1ccccc1 (stereo not drawn)
0.07

// same read-out, input: Cc1cc(C)nc(NC(=O)/C=C/c2ccc(Cl)cc2)n1
-2.67

// same read-out, input: Cc1ccc(/C=N/NC(=S)NC2CCCCC2)o1
3.18

// same read-out, input: O=C(c1ccco1)N(Cc1nc2ccccc2c(=O)[nH]1)C1CCCC1
-0.38

// same read-out, input: CN(C(=O)COC(=O)c1cc(-c2ccco2)nc2ccccc12)C1CCS(=O)(=O)C1 (stereo not drawn)
-1.15

// same read-out, input: Nc1scc[n+]1Cc1cccc2cccnc12
4.15

// same read-out, input: CC(C)N(Cc1nc(-c2ccc3c(c2)OCO3)no1)CC1CCC(=O)N1 (stereo not drawn)
2.1

// same read-out, input: CCC1=NN2C(=N)/C(=C/c3cc(C)n(-c4ccccc4)c3C)C(=O)N=C2S1
4.73

// same read-out, input: Cc1cccc(/C(N)=N/OC(=O)c2ccccc2Cl)c1
11.3

// same read-out, input: C/C(=N\NC(=S)Nc1ccc(C)cc1)c1cc2ccccc2o1
5.15

---

- Subject of test: Wee1-like protein kinase (Homo sapiens)
- Protocol text: Wee1 degradation inhibitors, primary screen, cell-based, HeLa, Wee1K328M-luciferase, luminescence (AID 1321);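 further: cells exposed to compound for 20 h before luminescence read; 0% = DMSO alone and 100% = MG132 at 30 µM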
- Assay context: HeLa Luc-Wee1K328M stability, at 5 µM, hits give high values, 100% = proteasome inhibitor MG132 effect
In all, about 220,000 compounds went through this assay and about 2,600 (1.2%) were called active. The full list was thinned out, with actives kept by preference.
Consider the following molecules; for each one, report its reporter increase.
I only need the number, in %, no unit after it.

Please give the measured reporter increase for this molecule: O=C(O)c1cccnc1Sc1ncnc2sc3c(c12)CCC3
-1.76

// same read-out, input: O=C(c1ccc(=O)oc1)N1CCC(C(O)(c2ccccc2)c2ccccc2)CC1
4.74

// same read-out, input: COCCCNC(=O)C1CCN(c2ccc(N3CCOCC3)nn2)CC1
-2.62

// same read-out, input: Cc1ccc(N2CCN(S(=O)(=O)N(C)C)CC2)cc1Cl
13.4

// same read-out, input: CN(C)S(=O)(=O)N1CCN(c2ccc([N+](=O)[O-])cc2)CC1
6.3

// same read-out, input: O=C(NC1C2CC3CC(C2)CC1C3)c1ccc(N2CCNCC2)c([N+](=O)[O-])c1 (stereo unspecified)
-0.74

// same read-out, input: Cn1ccc(NC(=O)Nc2ccc(Cl)cc2)n1
2.1

// same read-out, input: Cc1ccccc1NC(=O)Nc1ccccc1N1CCCCC1
2.91

// same read-out, input: Nc1nc(Nc2ccccc2)nc(NCCO)c1[N+](=O)[O-]
-3.26

// same read-out, input: CC(C)S(=O)(=O)c1csc(NC(=O)Nc2ccc(Cl)cc2)c1Cl
14.2

// same read-out, input: NC(=O)NC(=O)CSc1nc2cc([N+](=O)[O-])ccc2n1-c1cccc(C(F)(F)F)c1
0.4

---

Consider the following compounds; for each one, report its reporter increase.
- Subject of test: Wee1-like protein kinase (Homo sapiens) (UniProt P30291)
- Protocol text: Wee1 degradation inhibitors, primary screen, cell-based, HeLa, Wee1K328M-luciferase, luminescence (AID 1321);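 further: cells exposed to compound for 20 h before luminescence read; 0% = DMSO alone and 100% = MG132 at 30 µM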
- Assay context: HeLa Luc-Wee1K328M stability, at 5 µM, hits give high values, 100% = proteasome inhibitor MG132 effect
Hit rate of the full screen: of about 220,000 compounds, about 2,600 (1.2%) were called active. The entries come from a sample that favours actives as a whole.
I only need the number, in %, no unit after it.

Please give the measured reporter increase for this compound: CCCCOC(=O)c1ccc(NC(c2ccc(C)cc2)P(=O)(OC)OC)cc1 (stereo unspecified)
8.49

// same read-out, input: CCOP(=O)(OCC)C(Nc1cccc(C)c1)c1ccc(F)cc1 (stereo unspecified)
10.8

// same read-out, input: CCCCCOC(=O)NCCOC(=O)Nc1ccc(C(=O)OCC)cc1
3.09

// same read-out, input: CC(NS(=O)(=O)c1ccccc1)c1n[nH]c(=S)n1-c1ccccc1 (stereo unspecified)
0.56

// same read-out, input: COc1c(C=O)c(CCN(C)C(=O)c2ccc(F)cc2)cc2c1OCO2
0.06

// same read-out, input: COc1ccc(NC(=O)C2CCC(CNc3c(N4CCCCC4)c(=O)c3=O)CC2)c(OC)c1 (stereo unspecified)
1.06

// same read-out, input: Cc1ccc(NC(=O)OCCNC(=O)c2ccncc2)cc1
14.4

// same read-out, input: CCOP(=O)(OCC)C(Nc1ccc([N+](=O)[O-])cc1)c1ccc(Cl)cc1 (stereo unspecified)
0.66

// same read-out, input: Brc1ccc(-c2noc(-c3ccccc3)n2)o1
0.13

// same read-out, input: Cc1ccc(NC(=O)OCc2cncs2)cc1
2.2

// same read-out, input: CCOC(=O)c1cc(Sc2ccccc2N)cc(C(=O)OCC)n1
-2.91

---

- Subject of test: Wee1-like protein kinase (Homo sapiens)
- Protocol text: Wee1 degradation inhibitors, primary screen, cell-based, HeLa, Wee1K328M-luciferase, luminescence (AID 1321);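 further: cells exposed to compound for 20 h before luminescence read; 0% = DMSO alone and 100% = MG132 at 30 µM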
- Assay context: HeLa Luc-Wee1K328M stability, at 5 µM, hits give high values, 100% = proteasome inhibitor MG132 effect
In all, about 220,000 compounds went through this assay and about 2,600 (1.2%) were called active. The full list was thinned out, with actives kept by preference.
Consider the following compounds; for each one, report its reporter increase.
I only need the number, in %, no unit after it.

Please give the measured reporter increase for this compound: O=C(O)c1ccc(/C=N/Nc2nc(N3CCCCC3)nc(N3CCCCC3)n2)cc1
-2.82

// same read-out, input: O=C(O)CCCCc1nc2ccccc2s1
1.81

// same read-out, input: O=C(CNCc1ccco1)Nc1cc(S(=O)(=O)N2CCOCC2)ccc1N1CCCC1
-2.01

// same read-out, input: CCC(=O)Nc1c(S(=O)(=O)c2ccccc2)c2nc3ccccc3nc2n1Cc1ccccc1
-1.34

// same read-out, input: FC(F)(F)Oc1ccc(-c2cn3cccnc3n2)cc1
-1.79

// same read-out, input: O=C(NCc1cccs1)C1CCN(S(=O)(=O)c2ccc(Cl)cc2)CC1
0.23

Source of measurements: PubChem BioAssay AID1321
